Collected relative viability values appear next to each entry.
- Test system: IA-LM
- assay.procedure: relative viability (nuclei count vs DMSO), 5 days (fraction); higher = more cells survive
- setup.conditions: first compound 0.005 µM

compound	relative viability
COc1cc2nccc(Oc3ccc(NC(=O)Nc4cc(C)on4)c(Cl)c3)c2cc1OC [Tivozanib] + COc1cc2c(Oc3ccc(NC(=O)C4(C(=O)Nc5ccc(F)cc5)CC4)cc3F)ccnc2cc1OCCCN1CCOCC1 [Foretinib] (partner 0.25 µM)	1.21
COc1cc2nccc(Oc3ccc(NC(=O)Nc4cc(C)on4)c(Cl)c3)c2cc1OC [Tivozanib] + O=C(c1cc(Cc2n[nH]c(=O)c3ccccc23)ccc1F)N1CCN(C(=O)C2CC2)CC1 [Olaparib] (partner 8 µM)	0.867
Nc1ccn([C@@H]2O[C@H](CO)[C@@H](O)[C@@H]2O)c(=O)n1 [Cytarabine] + Cc1nc(NC(=O)N2CCC[C@H]2C(N)=O)sc1-c1ccnc(C(C)(C)C(F)(F)F)c1 [Alpelisib] (partner 2 µM)	0.784
Nc1ccn([C@@H]2O[C@H](CO)[C@@H](O)[C@@H]2O)c(=O)n1 [Cytarabine] + O=C(CCCCCCC(=O)Nc1ccccc1)NO [Vorinostat] (partner 1 µM)	0.868
COc1cc2nccc(Oc3ccc(NC(=O)Nc4cc(C)on4)c(Cl)c3)c2cc1OC [Tivozanib] + O=C(CCCCCCC(=O)Nc1ccccc1)NO [Vorinostat] (partner 1 µM)	0.93

* * *

- Test system: NCI-H1395
- assay.procedure: relative viability (nuclei count vs DMSO), 5 days (fraction); higher = more cells survive
- setup.conditions: first compound 0.0002 µM
Collected relative viability values appear next to each entry.
value.type: relative viability

compound	value.type	endpoint.value
CC(=O)O[C@@]12CO[C@@H]1C[C@H](O)[C@@]1(C)C(=O)[C@H](O)C3=C(C)[C@@H](OC(=O)[C@H](O)[C@@H](NC(=O)OC(C)(C)C)c4ccccc4)C[C@@](O)([C@@H](OC(=O)c4ccccc4)[C@H]21)C3(C)C [Docetaxel] + CS(=O)(=O)CCNCc1ccc(-c2ccc3ncnc(Nc4ccc(OCc5cccc(F)c5)c(Cl)c4)c3c2)o1 [Lapatinib] (partner 2 µM)	relative viability	0.992
CC(=O)O[C@@]12CO[C@@H]1C[C@H](O)[C@@]1(C)C(=O)[C@H](O)C3=C(C)[C@@H](OC(=O)[C@H](O)[C@@H](NC(=O)OC(C)(C)C)c4ccccc4)C[C@@](O)([C@@H](OC(=O)c4ccccc4)[C@H]21)C3(C)C [Docetaxel] + Cc1cc(Nc2cc(N3CCN(C)CC3)nc(Sc3ccc(NC(=O)C4CC4)cc3)n2)n[nH]1 [Tozasertib] (partner 0.1 µM)	relative viability	0.698
CC(=O)O[C@@]12CO[C@@H]1C[C@H](O)[C@@]1(C)C(=O)[C@H](O)C3=C(C)[C@@H](OC(=O)[C@H](O)[C@@H](NC(=O)OC(C)(C)C)c4ccccc4)C[C@@](O)([C@@H](OC(=O)c4ccccc4)[C@H]21)C3(C)C [Docetaxel] + CC(=O)c1c(C)c2cnc(Nc3ccc(N4CCNCC4)cn3)nc2n(C2CCCC2)c1=O [Palbociclib] (partner 0.5 µM)	relative viability	0.589
CC(=O)O[C@@]12CO[C@@H]1C[C@H](O)[C@@]1(C)C(=O)[C@H](O)C3=C(C)[C@@H](OC(=O)[C@H](O)[C@@H](NC(=O)OC(C)(C)C)c4ccccc4)C[C@@](O)([C@@H](OC(=O)c4ccccc4)[C@H]21)C3(C)C [Docetaxel] + CC1(C)CCC(c2ccc(Cl)cc2)=C(CN2CCN(c3ccc(C(=O)NS(=O)(=O)c4ccc(N[C@H](CCN5CCOCC5)CSc5ccccc5)c(S(=O)(=O)C(F)(F)F)c4)cc3)CC2)C1 [Navitoclax] (partner 0.5 µM)	relative viability	1.15

* * *

- System: NCI-H2087
- assay.procedure: relative viability (nuclei count vs DMSO), 5 days (fraction); higher = more cells survive
- setup.conditions: first compound 15.81 µM
Collected relative viability values appear next to each entry.
value.type: relative viability

compound	value.type	endpoint.value
O=C(O)CCCCC(CCSCc1ccccc1)SCc1ccccc1 (centres undefined) [CPI-613] + CS(=O)(=O)CCNCc1ccc(-c2ccc3ncnc(Nc4ccc(OCc5cccc(F)c5)c(Cl)c4)c3c2)o1 [Lapatinib] (partner 2 µM)	relative viability	0.934
O=C(O)CCCCC(CCSCc1ccccc1)SCc1ccccc1 (centres undefined) [CPI-613] + Nc1ncn([C@H]2C[C@H](O)[C@@H](CO)O2)c(=O)n1 [Decitabine] (partner 2 µM)	relative viability	0.218
O=C(O)CCCCC(CCSCc1ccccc1)SCc1ccccc1 (centres undefined) [CPI-613] + CCNC(=O)c1noc(-c2cc(C(C)C)c(O)cc2O)c1-c1ccc(CN2CCOCC2)cc1 [Luminespib] (partner 0.01 µM)	relative viability	0.165
O=C(O)CCCCC(CCSCc1ccccc1)SCc1ccccc1 (centres undefined) [CPI-613] + Cc1nc(NC(=O)N2CCC[C@H]2C(N)=O)sc1-c1ccnc(C(C)(C)C(F)(F)F)c1 [Alpelisib] (partner 2 µM)	relative viability	0.95

* * *

- Test system: NCI-H727
- assay.procedure: relative viability (nuclei count vs DMSO), 5 days (fraction); higher = more cells survive
- setup.conditions: first compound 0.005 µM
Collected relative viability values appear next to each entry.
value.type: relative viability

compound	endpoint.value
Nc1ccn([C@@H]2O[C@H](CO)[C@@H](O)[C@@H]2O)c(=O)n1 [Cytarabine] + Cc1nc(NC(=O)N2CCC[C@H]2C(N)=O)sc1-c1ccnc(C(C)(C)C(F)(F)F)c1 [Alpelisib] (partner 2 µM)	0.461
COc1cc2nccc(Oc3ccc(NC(=O)Nc4cc(C)on4)c(Cl)c3)c2cc1OC [Tivozanib] + N=C(N)NC(=N)NCCc1ccccc1 [Phenformin] (partner 250 µM)	0.664
Nc1ccn([C@@H]2O[C@H](CO)[C@@H](O)[C@@H]2O)c(=O)n1 [Cytarabine] + N=C(N)NC(=N)NCCc1ccccc1 [Phenformin] (partner 250 µM)	0.451
COc1cc2nccc(Oc3ccc(NC(=O)Nc4cc(C)on4)c(Cl)c3)c2cc1OC [Tivozanib] + CS(=O)(=O)CCNCc1ccc(-c2ccc3ncnc(Nc4ccc(OCc5cccc(F)c5)c(Cl)c4)c3c2)o1 [Lapatinib] (partner 2 µM)	0.676
Nc1ccn([C@@H]2O[C@H](CO)[C@@H](O)[C@@H]2O)c(=O)n1 [Cytarabine] + CS(=O)(=O)CCNCc1ccc(-c2ccc3ncnc(Nc4ccc(OCc5cccc(F)c5)c(Cl)c4)c3c2)o1 [Lapatinib] (partner 2 µM)	0.766
COc1cc2nccc(Oc3ccc(NC(=O)Nc4cc(C)on4)c(Cl)c3)c2cc1OC [Tivozanib] + C[C@@H](Oc1cc(-c2cnn(C3CCNCC3)c2)cnc1N)c1c(Cl)ccc(F)c1Cl [Crizotinib] (partner 1 µM)	0.72
Nc1ccn([C@@H]2O[C@H](CO)[C@@H](O)[C@@H]2O)c(=O)n1 [Cytarabine] + CCNC(=O)c1noc(-c2cc(C(C)C)c(O)cc2O)c1-c1ccc(CN2CCOCC2)cc1 [Luminespib] (partner 0.01 µM)	0.22
Nc1ccn([C@@H]2O[C@H](CO)[C@@H](O)[C@@H]2O)c(=O)n1 [Cytarabine] + NC(=O)Nc1cc(-c2cccc(F)c2)sc1C(=O)N[C@H]1CCCNC1 [AZD7762] (partner 0.2 µM)	0.518
Nc1ccn([C@@H]2O[C@H](CO)[C@@H](O)[C@@H]2O)c(=O)n1 [Cytarabine] + O=C(c1cc(Cc2n[nH]c(=O)c3ccccc23)ccc1F)N1CCN(C(=O)C2CC2)CC1 [Olaparib] (partner 8 µM)	0.659

* * *

- System: LK-2
- assay.procedure: relative viability (nuclei count vs DMSO), 5 days (fraction); higher = more cells survive
- setup.conditions: first compound 0.5 µM
Rule: relative viability below 0.2 gives Condition met, anything at or above gives Condition not met.

compound	answer.label
COc1cc2nccc(Oc3ccc(NC(=O)Nc4cc(C)on4)c(Cl)c3)c2cc1OC [Tivozanib] + CS(=O)(=O)N1CCN(Cc2cc3nc(-c4cccc5[nH]ncc45)nc(N4CCOCC4)c3s2)CC1 [Pictilisib] (partner 1 µM)	Condition not met
COc1cc2nccc(Oc3ccc(NC(=O)Nc4cc(C)on4)c(Cl)c3)c2cc1OC [Tivozanib] + O=C(c1cc(Cc2n[nH]c(=O)c3ccccc23)ccc1F)N1CCN(C(=O)C2CC2)CC1 [Olaparib] (partner 8 µM)	Condition not met
Nc1ccn([C@@H]2O[C@H](CO)[C@@H](O)[C@@H]2O)c(=O)n1 [Cytarabine] + CCNC(=O)c1noc(-c2cc(C(C)C)c(O)cc2O)c1-c1ccc(CN2CCOCC2)cc1 [Luminespib] (partner 0.01 µM)	Condition met
COc1cc2nccc(Oc3ccc(NC(=O)Nc4cc(C)on4)c(Cl)c3)c2cc1OC [Tivozanib] + CC(=O)c1c(C)c2cnc(Nc3ccc(N4CCNCC4)cn3)nc2n(C2CCCC2)c1=O [Palbociclib] (partner 0.5 µM)	Condition not met
Nc1ccn([C@@H]2O[C@H](CO)[C@@H](O)[C@@H]2O)c(=O)n1 [Cytarabine] + Nc1ncn([C@H]2C[C@H](O)[C@@H](CO)O2)c(=O)n1 [Decitabine] (partner 2 µM)	Condition met
Nc1ccn([C@@H]2O[C@H](CO)[C@@H](O)[C@@H]2O)c(=O)n1 [Cytarabine] + CS(=O)(=O)CCNCc1ccc(-c2ccc3ncnc(Nc4ccc(OCc5cccc(F)c5)c(Cl)c4)c3c2)o1 [Lapatinib] (partner 2 µM)	Condition not met
Nc1ccn([C@@H]2O[C@H](CO)[C@@H](O)[C@@H]2O)c(=O)n1 [Cytarabine] + Cc1nc(Nc2ncc(C(=O)Nc3c(C)cccc3Cl)s2)cc(N2CCN(CCO)CC2)n1 [Dasatinib] (partner 0.075 µM)	Condition met
